Tested on: Escherichia coli
measurement_setup: Concentration 32 ug.mL-1;; ASSAY_TEST Inhibition of Bacterial Growth; detection method Absorption (OD600); MEDIA CAMHB; plate type 384well; NBS; CORNING #3640; time 18 hr
Description: Antibacterial activity against Escherichia coli ATCC 25922 (CO-ADD:GN_001); MIC in CAMBH media using NBS plates, by OD(600)
Entries with a potency or affinity are not part of this list.
Each item that follows carries a reported Inhibition.

{"compound_structure_string": "CC(=O)c1ccc(NC(=O)Cn2c(=O)c3nnc(C(C)C)n3c3ccccc32)cc1", "Inhibition, %": -3.86}
{"compound_structure_string": "O=C(Cn1nc2c(N3CCOCC3)nccn2c1=O)Nc1ccc(Cl)cc1F", "Inhibition, %": 5.15}
{"compound_structure_string": "CCCCOc1ccc(-c2cc3c4nnc(SCC(=O)Nc5ccc(CC)cc5)n4ccn3n2)cc1", "Inhibition, %": -11.54}
{"compound_structure_string": "CCOc1ccc(NC(=O)CSc2nnc3c(=O)n(-c4ccc(OCC)cc4)ccn23)cc1", "Inhibition, %": -1.04}
{"compound_structure_string": "COc1cccc(NC(=O)Cn2c(=O)c3nnc(C(C)C)n3c3ccccc32)c1", "Inhibition, %": 0.77}
